# Test system: H2122 cells
# ASSAY_PROTOCOL: Single agent proliferation assay, Hoechst stain, H2122
# Format: cell-based
# DETAILS: Homo sapiens, NCI-H2122, 72 h, read-out: Relative IC50
PROPERTY: IC50 (nM)

CC(=O)c1c(C)c2cnc(Nc3ccc(N4CCNCC4)cn3)nc2n(C2CCCC2)c1=O : 150
CC(=O)O[C@H]1C(=O)[C@@]2(C)[C@H]([C@H](OC(=O)c3ccccc3)[C@]3(O)C[C@H](OC(=O)[C@H](O)[C@@H](NC(=O)c4ccccc4)c4ccccc4)C(C)=C1C3(C)C)[C@]1(OC(C)=O)CO[C@@H]1C[C@@H]2O : 2
CC(C)Nc1cc(-c2c[nH]c(C(=O)N[C@H](CO)c3cccc(Cl)c3)c2)c(Cl)cn1 : 450
CN(C)C(=O)c1cc2cnc(Nc3ccc(N4CCNCC4)cn3)nc2n1C1CCCC1 : 450

1: O=C(Nc1ccc2[nH]nc(-c3ccncc3)c2c1)[C@@H]1CCN(CC(=O)N2CCN(c3ccc(-c4ncccn4)cc3)CC2)C1
2: CC(=O)Nc1cccc(-n2c(=O)n(C3CC3)c(=O)c3c(Nc4ccc(I)cc4F)n(C)c(=O)c(C)c32)c1
# argmax over IC50 for candidates 1 and 2 In your reply, give the label of the chosen option.
1
(1: 530 nM, 2: 3 nM)
